Listing of recorded Kd by entry.
Target: T1, recombinant human sc-uPA (human, UniProt P00749 21-431)
T1 construct: 411 amino acid single-chain zymogen expressed in HEK293; the 20-residue signal peptide is not present in the mature protein; also called human single-chain uPA; pro-uPA
Experiment: SPR, mAb immobilised
Reply with just the number (in nM).

Below are worked cases with known answers.
BINDER	OUTPUT_UNIT	EXPERIMENTAL_RESULT
rec0266-0000-0010-VL_N90K (antibody, mouse IgG1, name in Kabat numbering, V domains shown) VH: DVKLVESGGGLVKPGGSLKLSCVASGFTFSSYTMSWVRQTPEKRLEWVATISGGGSHIYYADSVKGRFTISRDNAKNTLYLQMSSLKSEDTAIYYCTRDGRDGSWFAYWGQGTLVTVSA VL: DIVMTQSPATLSVTPGDRVSLSCRTSQSIGDYLHWYQQKSHESPRLLIKYVSQSISGIPSRFSGSGSGSDFTLSINSVESEDVGVYYCQKSHSFPLTFGSGTKLELKR	nM	1.1
rec0266-0000-0010-VL_S91L (antibody, mouse IgG1, name in Kabat numbering, V domains shown) VH: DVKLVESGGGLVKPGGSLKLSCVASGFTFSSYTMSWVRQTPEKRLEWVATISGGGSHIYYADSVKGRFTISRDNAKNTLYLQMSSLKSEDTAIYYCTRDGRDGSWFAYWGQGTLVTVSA VL: DIVMTQSPATLSVTPGDRVSLSCRTSQSIGDYLHWYQQKSHESPRLLIKYVSQSISGIPSRFSGSGSGSDFTLSINSVESEDVGVYYCQNLHSFPLTFGSGTKLELKR	nM	5.7

Now let's try a different one.
In: Param item = rec0266-0000-0010-VL_N90E (antibody, mouse IgG1, name in Kabat numbering, V domains shown) VH: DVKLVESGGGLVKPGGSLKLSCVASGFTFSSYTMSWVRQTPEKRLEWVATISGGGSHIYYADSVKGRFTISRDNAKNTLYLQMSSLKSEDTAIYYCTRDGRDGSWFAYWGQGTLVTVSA VL: DIVMTQSPATLSVTPGDRVSLSCRTSQSIGDYLHWYQQKSHESPRLLIKYVSQSISGIPSRFSGSGSGSDFTLSINSVESEDVGVYYCQESHSFPLTFGSGTKLELKR ; retrieve measured Kd.
Out: 0.43

All figures here come from patent US20160159924A1.
